study.system: Cytochrome P450 2C19 (Homo sapiens) (UniProt P33261)
Sequence (P33261 whole entry, looked up): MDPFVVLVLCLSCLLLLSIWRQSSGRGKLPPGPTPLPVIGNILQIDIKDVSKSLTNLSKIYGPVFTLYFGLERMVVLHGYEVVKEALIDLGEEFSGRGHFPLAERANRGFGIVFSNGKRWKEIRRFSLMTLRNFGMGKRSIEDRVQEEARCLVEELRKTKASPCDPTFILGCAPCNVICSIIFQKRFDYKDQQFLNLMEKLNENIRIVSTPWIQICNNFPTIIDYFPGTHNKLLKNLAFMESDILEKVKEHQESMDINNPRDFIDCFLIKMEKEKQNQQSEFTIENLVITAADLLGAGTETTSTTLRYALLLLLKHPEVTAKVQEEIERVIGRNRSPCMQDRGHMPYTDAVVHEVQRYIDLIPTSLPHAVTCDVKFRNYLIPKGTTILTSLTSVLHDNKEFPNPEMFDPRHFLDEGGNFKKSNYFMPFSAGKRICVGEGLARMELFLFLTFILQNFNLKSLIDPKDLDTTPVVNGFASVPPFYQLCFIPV
experiment.summary: Cytochrome P450 Family 2 Subfamily C Member 19 (CYP2C19) small molecule antagonists: luciferase reporter qHTS assay (AID 1671197); note: nearly all actives have a fitted effect of over 65% in size
measurement.conditions: P450-Glo CYP2C19 enzyme, luciferin luminescence, 1 h; series mostly up to 115 µM
Inconclusive results are not listed. Activity calls are given as the source filed them. Calls come from the whole dose curve; as a rule, active = well fitted inhibition curve with a large enough effect in the repeat runs; inconclusive = weak or mixed curves; inactive = no such curve, though single readings can be large or run the other way.
Please answer using one outcome listed in True = active, False = inactive

molecule="CC(CC(=O)O)CC(C)(C)C (centres undefined)" group=False
molecule=CC(=O)OCCCc1ccccc1 group=False
molecule=CCCOCCOCCOCCO group=False
molecule=CCCOC(=O)CCCCC(=O)OCCC group=True
molecule=CC(C)C(=O)c1ccccc1 group=False

Incoming: I'd appreciate the recorded outcome for `C=C(C)[C@@H]1CC[C@@H](C)C[C@@H]1O` from this test.
Outgoing: False

Incoming: Give the logged outcome of this assay for the following molecule: `C=C[Si](C)(C)O[Si](C)(C)C=C`
Outgoing: False

Incoming: How did this test come out for `C=CCOc1c(Br)cc(Br)cc1Br` ?
Outgoing: True

Incoming: Write down the call the test reported for this molecule. Item: `CCOC(=O)CC#N`
Outgoing: True

Incoming: What call does the record list for `CC(=O)OC(C)(C)Cc1ccccc1` ?
Outgoing: False

Incoming: Assay outcome for NS(=O)(=O)c1cc2c(cc1Cl)NC(CC1CCCC1)NS2(=O)=O (centres undefined) : what was it?
Outgoing: False

----------
experiment.summary: qHTS assay for small molecules that induce genotoxicity in human embryonic kidney cells expressing luciferase-tagged ATAD5 - cell viability (AID 651634); note: nearly all actives have a fitted effect of over 25% in size
measurement.conditions: HEK293T ATAD5-luc cells viability, CellTiter-Fluor, 15.5 h; series mostly up to 83.3 µM
Source text: National Center for Advancing Translational Sciences [NCATS] NIH Chemical Genomics Center [NCGC] U.S. Environmental Protection Agency [EPA] National Institutes of Environmental Health Sciences [NIEHS] National Toxicology Program [NTP] U.S. Food and Drug Administration [FDA] Enhanced Level of Genome Instability Gene 1 (ELG1; human ATAD5) protein levels increase in response to various types of DNA damage. […]
Records with an inconclusive call do not appear. Active and inactive are the calls of the source. Calls follow the shape of the full dose curve.
// classify into active, inactive

These recorded examples may help you get a feel for the data.
compound=O=C(c1ccc2c(c1)C(=O)OC2=O)c1ccc2c(c1)C(=O)OC2=O group=inactive
compound=C=CCOC(=O)c1ccc(C(=O)OCC=C)c(C(=O)OCC=C)c1 group=inactive
compound=Nc1cc(Cl)cc(S(=O)(=O)O)c1O group=inactive
compound=CCN(CCC#N)c1ccccc1 group=inactive
compound=CCOC(=O)CCc1ccccc1 group=inactive
compound=CC(=O)/C=C/c1ccco1 group=inactive
compound=O=C1c2ccccc2-c2ccccc21 group=inactive
compound="C1=CCC(c2ccccc2)CC1 (configuration not stated)" group=inactive
compound="NS(=O)(=O)c1cc2c(cc1Cl)NC(CC1CCCC1)NS2(=O)=O (configuration not stated)" group=inactive
compound=CC(C)COC(=O)/C=C/c1ccccc1 group=inactive

Incoming: Recorded call for `O=c1[nH]c(=O)c2ccccc2o1` ?
Outgoing: inactive

Incoming: Hi, sorry to bother you, what did the test record for `FC(F)(F)c1ccc(Cl)cc1Cl` ?
Outgoing: inactive

Incoming: What did this assay record as the result for CCC(O)C(C)(C)C (configuration not stated) ?
Outgoing: inactive

Incoming: Returns: the outcome recorded for `CCC(C)(C)C1CCC(=O)CC1` in this assay.
Outgoing: inactive

Incoming: Query: recorded result category for `CCCCOC(=O)C(=O)OCCCC` in this test
Outgoing: inactive

Incoming: Any idea what this test logged for `NC(=O)NC(=O)Cc1ccccc1` ?
Outgoing: inactive

Incoming: Call for entry `Cn1c(=O)c2c(ncn2CC2OCCO2)n(C)c1=O` :
Outgoing: inactive

Incoming: How did this test come out for `CCCCOC(=O)[C@@H](C)Oc1ccc(Oc2ccc(C(F)(F)F)cn2)cc1` ?
Outgoing: inactive

Incoming: Call for entry `CC(=O)Nc1ncc([N+](=O)[O-])s1` :
Outgoing: inactive

Incoming: Short answer needed: outcome of this test for `O=C(O)c1ccccc1C(=O)OCc1ccccc1` ?
Outgoing: inactive

Incoming: Record request — test call for CCC1COC(=O)O1 (configuration not stated)
Outgoing: inactive

Incoming: Can you look up the reported call for `O=CN1CCOCC1` for me?
Outgoing: inactive

Incoming: I'd appreciate the recorded outcome for `CN=C(NC#N)NCCSCc1csc(N=C(N)N)n1` from this test.
Outgoing: inactive

Incoming: Please let me know the test result on file for CCCC(C)CC (configuration not stated) .
Outgoing: inactive

Reference source: PubChem BioAssay (Tox21)
